test: Gelation test in solvents at room temperature; type: physicochemical; parameters: key: I, insoluble; P, precipitating; S, soluble at ~20 mg/mL; G, gel at room temperature; number is minimum gelation concentration; conditions: EtOH:H2O (1:1), room temperature
Non-standard residues stand in square brackets, D forms with d. Residues, ends and D or L forms follow the SMILES beside them. *: point of attachment. Nphe = O=C(O)CNCc1ccccc1; Bz = O=C(c1ccccc1)*
Reported metric: Gelation test result

Solved cases (5 shown):
CCOC(=O)CNC(=O)CN(Cc1ccccc1)C(=O)c1ccccc1 [Compound 22] (Bz-[Nphe]-Gly-OEt): P
C#CCCC(=O)N(CC(=O)NC1CCCCC1)Cc1ccccc1: P
CCOC(=O)CNC(=O)CN(Cc1ccc(OC)cc1)C(=O)c1ccc(Br)cc1: G
O=C(CN(Cc1ccccc1)C(=O)c1ccc([N+](=O)[O-])cc1)NC1CCCCC1: G
COc1ccc(CN(CC(=O)NC2CCCCC2)C(=O)c2ccc(Br)cc2)cc1: G

Consider CCOC(=O)CNC(=O)CN(C(=O)c1ccc(Br)cc1)C1C(OC)OC2COC(c3ccccc3)OC2C1O (centres unmarked) . Its measured Gelation test result is G

Consider CCOC(=O)CNC(=O)CN(Cc1ccc(OC)cc1)C(=O)c1ccccc1 . Its measured Gelation test result is P
